target: T1, Prostate Specific Antigen (UniProt P07288 25-261); test: BIAcore
T1 construct: also called PSA
T1 sequence (P07288 25-261 limits assumed): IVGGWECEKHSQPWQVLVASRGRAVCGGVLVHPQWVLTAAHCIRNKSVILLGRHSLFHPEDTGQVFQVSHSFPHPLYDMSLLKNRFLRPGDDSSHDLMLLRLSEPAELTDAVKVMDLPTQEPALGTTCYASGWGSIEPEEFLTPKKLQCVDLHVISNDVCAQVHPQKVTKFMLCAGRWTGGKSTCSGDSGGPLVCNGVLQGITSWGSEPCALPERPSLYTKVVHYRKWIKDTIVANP
Field: Kd. Provide a value for each of the binders that follow.
Answer in nM, number only, no unit symbol.

Field request: Kd | item: C9-B (VHH, Dromedary single domain; purified on Ni-NTA) VHH: DVQLQESGGGLVQPGGSLRLSCAASGFTFSNHYMTWVRQAPGKGLEWVSVISNDGRYTDYADSVKGRFTISRDNAKNTLYLQMNSLKTEDTALYTCVRGYYLTNLPAGDRGQGTQVTVSS
3.9

Can you handle C1-B (VHH, Dromedary single domain; purified on Ni-NTA) VHH: DVQLQESGGGLVQPGGSLRLSCAASGFTFSTSYMTWARQAPGKGLEWVSGINRDGNNPLYADSVEGRFTVSRDNAKNTLYLQMNSLKSEDTALYYCVAGALVAGARGQGTQVTVSS next?
0.8

Can you handle C12-A (VHH, Dromedary single domain; purified on Ni-NTA) VHH: DVQLQESGGGLVRPGGSLRLSCAASGFLFSGTYMTWARQAPGKGLEWLCGINKDGSGTLYADSVEGRFTCSRDNAKNTLYLQMNSLKSEDTALYYCSTGALLPTRPQGQGTQVTVSS next?
2.6

Can you handle N8-B (VHH, Dromedary single domain; purified on Ni-NTA) VHH: DVQLQESGGGLVQPGGSLRLSCAASGFLFSDTYMTWARQAPGKGLEWLGGISKDGSGTLYEDSVEGRFTISRDNAKNTLYLQMNSLKSEDTALYYCSTGALLPTRPQGQGTQVTVSS next?
1.6

Can you handle C11-B (VHH, Dromedary single domain; purified on Ni-NTA) VHH: DVQLQESGGGLVQPGGSLRLSCAASGFIFSNTYMTWVRQAPGKGLEWVSGISADGRDTLYADSVEGRFAISRDNAKNTLYLQMNSLRSEDTALYYCVTGALMTGRRGQGTQVTVSS next?
2.6
